- assay_name: Pharmacokinetic evaluation after intravenous or gavage administration to dogs
- Assay type: in vivo, Beagle dogs
- assay_context: beagle, dog, plasma, intravenous drug delivery group, dose 1 mg/kg
quantity_measured: clearance (mL/min/kg)

structure_string: O=S(=O)(c1cccc(F)c1)n1cc(C(F)F)c2c(N3CCNCC3)cccc21
clearance / mL/min/kg: 14

[P] O=S(=O)(c1ccccc1Cl)n1cc(C(F)F)c2c(N3CCNCC3)cccc21
[Q] O=S(=O)(c1ccccc1F)n1cc(C(F)F)c2c(N3CCNCC3)cccc21
Problem: Select the item whose clearance value is smaller, choosing between P and Q . In your reply, give the label of the chosen option.
Result: P

* * *

- assay_name: Pharmacokinetic evaluation after intravenous or gavage administration to dogs
- Format: in vivo, Beagle dogs
- assay_context: beagle, dog, plasma, po, gavage group, dose 5 mg/kg
quantity_measured: half-life (h)
# value in h; strip the unit string

Problem: Endpoint output: half-life of O=S(=O)(c1cccc(F)c1)n1cc(C(F)F)c2c(N3CCNCC3)cccc21 . Value?
Result: 10.1

* * *

- assay_name: Stability in rat liver microsomes
- Format: in vitro ADME
- assay_context: rat liver microsome 0.5 mg/mL, 1 μM compound, 37° C., pH 7.4
- Method: Example C: Evaluation of the Stability of the Compounds of the Invention in Rat and Human Liver Microsomes The compound of the invention and rat liver microsome or human liver microsome were placed in 0.1 M potassium phosphate buffer (containing 1.0 mM EDTA, pH=7.4) at 37° C., and the mixture was incubated at 37° C. […] Then the intrinsic clearance was calculated. The peak area ratio of sample to internal standard was analyzed by the LC/MS/MS system. […]
quantity_measured: half-life at 1 μM (min)

structure_string: O=S(=O)(c1ccccc1Br)n1cc(C(F)F)c2c(N3CCNCC3)cccc21
quantity_measured: half-life at 1 μM
unit_info: min
result_number: 30.4

structure_string: O=S(=O)(c1cccc(F)c1)n1cc(C(F)F)c2c(N3CCNCC3)cccc21
quantity_measured: half-life at 1 μM
unit_info: min
result_number: 43.5

structure_string: O=S(=O)(c1cccc(Cl)c1)n1cc(C(F)F)c2c(N3CCNCC3)cccc21
quantity_measured: half-life at 1 μM
unit_info: min
result_number: 35.5

structure_string: O=S(=O)(c1ccccc1Cl)n1cc(C(F)F)c2c(N3CCNCC3)cccc21
quantity_measured: half-life at 1 μM
unit_info: min
result_number: 30.1

structure_string: O=S(=O)(c1ccccc1F)n1cc(C(F)F)c2c(N3CCNCC3)cccc21
quantity_measured: half-life at 1 μM
unit_info: min
result_number: 35

* * *

- assay_name: Pharmacokinetic evaluation after intravenous or gavage administration to dogs
- Format: in vivo, Beagle dogs
- assay_context: beagle, dog, plasma, po, gavage group, dose 5 mg/kg
quantity_measured: AUC(0-inf) (ng·h/mL)
Dear colleague, please return just the value in ng·h/mL, with no unit written.

Problem: Sample O=S(=O)(c1cccc(F)c1)n1cc(C(F)F)c2c(N3CCNCC3)cccc21 [Example 5] — what was its AUC(0-inf)?
Result: 8350

* * *

- assay_name: Pharmacokinetic evaluation after intravenous or gavage administration to dogs
- Type: in vivo, Beagle dogs
- assay_context: beagle, dog, plasma, intravenous drug delivery group, dose 1 mg/kg
quantity_measured: MRT inf (h)

structure_string: O=S(=O)(c1ccccc1Cl)n1cc(C(F)F)c2c(N3CCNCC3)cccc21
unit_info: h
MRT inf: 8.77
//
structure_string: O=S(=O)(c1ccccc1F)n1cc(C(F)F)c2c(N3CCNCC3)cccc21
unit_info: h
MRT inf: 8.73
//
structure_string: O=S(=O)(c1cccc(F)c1)n1cc(C(F)F)c2c(N3CCNCC3)cccc21
unit_info: h
MRT inf: 8.77

* * *

- study_target: human 5-HT6 receptor (Homo sapiens (Human))
- Sequence (P50406 whole entry): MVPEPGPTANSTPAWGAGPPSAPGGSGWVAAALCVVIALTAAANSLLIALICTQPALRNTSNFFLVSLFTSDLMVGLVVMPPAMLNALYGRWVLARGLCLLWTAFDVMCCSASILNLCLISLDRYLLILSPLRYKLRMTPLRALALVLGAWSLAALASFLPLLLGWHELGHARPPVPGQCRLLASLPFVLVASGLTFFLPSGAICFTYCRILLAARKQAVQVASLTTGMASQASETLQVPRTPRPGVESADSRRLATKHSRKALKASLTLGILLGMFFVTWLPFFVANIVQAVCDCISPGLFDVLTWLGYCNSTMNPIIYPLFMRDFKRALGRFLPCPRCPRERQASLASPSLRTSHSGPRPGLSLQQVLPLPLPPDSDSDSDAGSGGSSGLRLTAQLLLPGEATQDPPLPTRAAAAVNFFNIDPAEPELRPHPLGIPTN
pKi: −log10 of the molar value.
quantity_measured: pKi

Sample answers from the record:
compound: O=S(=O)(c1ccccc1Cl)n1cc(C(F)F)c2c(N3CCNCC3)cccc21 [Example 3]
pKi: 9.37
--
compound: CCN1CCN(c2cccc3c2c(C(F)F)cn3S(=O)(=O)c2cccc(F)c2)CC1 [Example 43]
pKi: 8.64
--
compound: O=S(=O)(c1cccc(Br)c1)n1cc(C(F)F)c2c(N3CCNCC3)cc(Br)cc21 [Example 37]
pKi: 8.82
--
compound: O=S(=O)(c1ccc(Cl)cc1)n1cc(C(F)F)c2cc(N3CCNCC3)ccc21 [Example 20]
pKi: 7.36

[A] O=S(=O)(c1ccccc1F)n1cc(C(F)F)c2cc(N3CCNCC3)ccc21 [Example 12]
[B] O=S(=O)(c1ccccc1F)n1cc(C(F)F)c2c(N3CCNCC3)cc(Cl)cc21 [Example 24]
Problem: From the items above, decide which of A and B has the lower pKi reading. Answer with the label corresponding to your selection.
Result: A
(A: 7.52, B: 8.80)

* * *

- assay_name: Pharmacokinetic evaluation after intravenous or gavage administration to dogs
- Format: in vivo, Beagle dogs
- assay_context: beagle, dog, plasma, po, gavage group, dose 2.5 mg/kg
quantity_measured: MRT inf (h)

compound: O=S(=O)(c1ccccc1Cl)n1cc(C(F)F)c2c(N3CCNCC3)cccc21 [Example 3]
unit_info: h
MRT inf: 17.9

compound: O=S(=O)(c1ccccc1F)n1cc(C(F)F)c2c(N3CCNCC3)cccc21 [Example 2]
unit_info: h
MRT inf: 16.8

* * *

- assay_name: Stability in rat liver microsomes
- Type: in vitro ADME
- assay_context: rat liver microsome 0.5 mg/mL, 1 μM compound, 37° C., pH 7.4, read-out: Intrinsic clearance
quantity_measured: CLint scaled at 1 μM (mL/min/kg)

Would you please look over these solved cases?
structure_string: O=S(=O)(c1ccccc1F)n1cc(C(F)F)c2c(N3CCNCC3)cccc21
quantity_measured: CLint scaled at 1 μM
result_number: 71

structure_string: O=S(=O)(c1cccc(Cl)c1)n1cc(C(F)F)c2c(N3CCNCC3)cccc21
quantity_measured: CLint scaled at 1 μM
result_number: 70

structure_string: O=S(=O)(c1ccccc1Br)n1cc(C(F)F)c2c(N3CCNCC3)cccc21
quantity_measured: CLint scaled at 1 μM
result_number: 81.8

[A] O=S(=O)(c1ccccc1Cl)n1cc(C(F)F)c2c(N3CCNCC3)cccc21
[B] O=S(=O)(c1cccc(F)c1)n1cc(C(F)F)c2c(N3CCNCC3)cccc21
Problem: # argmax over CLint scaled at 1 μM for candidates A and B Please identify the chosen entry by its label.
Result: A

* * *

- assay_name: Pharmacokinetic evaluation after intravenous or gavage administration to dogs
- Type: in vivo, Beagle dogs
- assay_context: beagle, dog, plasma, intravenous drug delivery group, dose 1 mg/kg
- Description: Example B: Pharmacokinetic Evaluation after Administering a Certain Amount of the Compounds of the Invention Intravenously or by Gavage to Dogs and Monkeys In vivo pharmacokinetic assays in dogs and cynomolgus monkeys of the compounds disclosed herein were performed by the following steps. Experiments were divided into two groups, one group was administered through intravenous drug delivery, and the other group was administered by gavage. […] The above plasma was analyzed by the LC/MS/MS system.
quantity_measured: AUC(0-inf) (ng·h/mL)

structure_string: O=S(=O)(c1cccc(F)c1)n1cc(C(F)F)c2c(N3CCNCC3)cccc21
AUC(0-inf), ng·h/mL: 1190

[a] O=S(=O)(c1ccccc1Cl)n1cc(C(F)F)c2c(N3CCNCC3)cccc21
[b] O=S(=O)(c1ccccc1F)n1cc(C(F)F)c2c(N3CCNCC3)cccc21
Problem: Determine, for a and b , which has the greater value of AUC(0-inf). Indicate which entry you chose by stating its label.
Result: a

* * *

- assay_name: Stability in human liver microsomes
- Type: in vitro ADME
- assay_context: liver microsomes; human liver microsome 0.5 mg/mL, 1 μM compound, 37° C., pH 7.4
quantity_measured: half-life at 1 μM (h)

structure_string: O=S(=O)(c1ccccc1F)n1cc(C(F)F)c2c(N3CCNCC3)cccc21
half-life at 1 μM [h]: 2.22

[P] O=S(=O)(c1ccccc1Cl)n1cc(C(F)F)c2c(N3CCNCC3)cccc21
[Q] O=S(=O)(c1cccc(F)c1)n1cc(C(F)F)c2c(N3CCNCC3)cccc21
Problem: Could you determine which record has the numerically smaller half-life at 1 μM? Candidates: P and Q Output the label that corresponds to your choice.
Result: P
(P: 2.2 h, Q: 3.62 h)

* * *

- assay_name: Pharmacokinetic evaluation after intravenous or gavage administration to dogs
- Assay type: in vivo, Beagle dogs
- assay_context: beagle, dog, plasma, intravenous drug delivery group, dose 1 mg/kg
quantity_measured: Cmax (ng/mL)

structure_string: O=S(=O)(c1cccc(F)c1)n1cc(C(F)F)c2c(N3CCNCC3)cccc21
result_number: 125

[A] O=S(=O)(c1ccccc1F)n1cc(C(F)F)c2c(N3CCNCC3)cccc21
[B] O=S(=O)(c1ccccc1Cl)n1cc(C(F)F)c2c(N3CCNCC3)cccc21
Problem: Please tell me which of the two, A or B , has the higher reported Cmax value. // caller expects the label of the chosen entry
Result: B
